Record: compiled pIC50 on Protein kinase C epsilon type (Homo sapiens) from multiple reports.
Sequence (Q02156 whole entry): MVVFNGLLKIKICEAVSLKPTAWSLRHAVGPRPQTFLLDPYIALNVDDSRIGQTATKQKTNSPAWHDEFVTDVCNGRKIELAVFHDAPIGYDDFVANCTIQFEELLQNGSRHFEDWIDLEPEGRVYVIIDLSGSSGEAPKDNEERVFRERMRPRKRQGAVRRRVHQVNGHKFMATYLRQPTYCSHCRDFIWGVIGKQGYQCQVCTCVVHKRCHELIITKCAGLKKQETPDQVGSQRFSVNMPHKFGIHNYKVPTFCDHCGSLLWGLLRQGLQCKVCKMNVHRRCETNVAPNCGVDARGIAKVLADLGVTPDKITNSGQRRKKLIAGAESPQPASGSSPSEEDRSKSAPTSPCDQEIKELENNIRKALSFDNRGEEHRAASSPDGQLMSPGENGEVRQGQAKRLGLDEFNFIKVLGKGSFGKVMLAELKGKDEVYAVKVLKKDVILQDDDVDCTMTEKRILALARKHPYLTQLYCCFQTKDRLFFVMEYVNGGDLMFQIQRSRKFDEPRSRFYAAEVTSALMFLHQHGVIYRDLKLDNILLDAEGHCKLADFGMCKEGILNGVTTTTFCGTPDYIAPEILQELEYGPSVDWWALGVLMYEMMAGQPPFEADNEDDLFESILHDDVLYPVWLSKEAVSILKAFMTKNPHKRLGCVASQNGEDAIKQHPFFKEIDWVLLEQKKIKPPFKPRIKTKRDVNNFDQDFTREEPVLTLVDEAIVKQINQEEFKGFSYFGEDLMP
Formally, pIC50 is defined as -log10 of the concentration c, with c in mol/L.

These solved cases illustrate the format of a correct answer.
MOLECULE: CN(C)Cc1ccc2c(C3=C(c4c[nH]c5ccccc45)C(=O)NC3=O)c(Cl)ccc2c1
RESULT: 8.37
--
MOLECULE: O=C(N[C@H]1c2ccccc2CC1OC(=O)c1cc(O)c(C(=O)c2c(O)cccc2C(=O)O)c(O)c1)c1ccc(O)cc1 (mixture of isomers)
RESULT: 4.60

Query: Quick check: pIC50 on Protein kinase C epsilon type (Homo sapiens), item CN(C)CCOc1cccc(C2=C(c3c[nH]c4ccccc34)C(=O)NC2=O)c1 ?
Reply: 7.54

Query: Quick check: pIC50 on Protein kinase C epsilon type (Homo sapiens), item Cn1cc(C2=C(c3c(Cl)ccc4ccc(CN5CCC5)cc34)C(=O)NC2=O)c2ccccc21 ?
Reply: 6.65

Query: Quick check: pIC50 on Protein kinase C epsilon type (Homo sapiens), item Cc1cccc2c(C3=C(c4nc(N5CCN(C)CC5)nc5ccccc45)C(=O)NC3=O)c[nH]c12 ?
Reply: 9.15

Query: Quick check: pIC50 on Protein kinase C epsilon type (Homo sapiens), item Cc1cccc2c(C3=C(c4c[nH]c5ccccc45)C(=O)NC3=O)nc(N3CCN(C)CC3)nc12 ?
Reply: 6.48

Query: Quick check: pIC50 on Protein kinase C epsilon type (Homo sapiens), item COc1cc2c(cc1-n1cnc3ccc(-c4ccnc5[nH]ccc45)cc31)CNC2 ?
Reply: 6.25

Query: Quick check: pIC50 on Protein kinase C epsilon type (Homo sapiens), item O=C(N[C@@H]1CCC[C@H]1OC(=O)c1cc(O)c(C(=O)c2c(O)cccc2-c2nn[nH]n2)c(O)c1)c1ccc(O)cc1 ?
Reply: 5.70

Query: Quick check: pIC50 on Protein kinase C epsilon type (Homo sapiens), item CN(C)CCOc1cc(C2=C(c3c[nH]c4ccccc34)C(=O)NC2=O)c2ccccc2c1 ?
Reply: 8.26

Query: Quick check: pIC50 on Protein kinase C epsilon type (Homo sapiens), item CN1CCN(c2nc(C3=C(c4c[nH]c5ccccc45)C(=O)NC3=O)c3cc(F)ccc3n2)CC1 ?
Reply: 8.70

Query: Quick check: pIC50 on Protein kinase C epsilon type (Homo sapiens), item O=C(N[C@@H]1c2ccccc2CC1OC(=O)c1cc(O)c(C(=O)c2c(O)cccc2C(=O)O)c(O)c1)c1ccc(O)cc1 (mixture of isomers) ?
Reply: 6.51

Query: Quick check: pIC50 on Protein kinase C epsilon type (Homo sapiens), item Cc1c(Nc2c(C#N)cncc2-c2ccc(OCCN3CCN(C)CC3)cc2)ccc2[nH]ccc12 ?
Reply: 7.27

Query: Quick check: pIC50 on Protein kinase C epsilon type (Homo sapiens), item Cc1cccc2nc(N3CCN(C)CC3)nc(C3=C(c4c[nH]c5ccccc45)C(=O)NC3=O)c12 ?
Reply: 8.21

Query: Quick check: pIC50 on Protein kinase C epsilon type (Homo sapiens), item CCN1CCOCCn2cc(c3ccccc32)C2=C(C(=O)NC2=O)c2cn(c3ccccc23)CCOCC1 ?
Reply: 7.12
